B1: glmS ribozyme (parent)
chain: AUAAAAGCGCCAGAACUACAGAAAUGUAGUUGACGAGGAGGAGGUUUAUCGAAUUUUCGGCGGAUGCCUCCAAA

- Variants of: B1
- MEASUREMENT DESCRIPTION: self-cleavage kobs at 10000 uM GlcN6P; higher = faster cleavage; RNA array
- PARTICULARS: with glucosamine-6-phosphate
Variants at the floor of the assay were thinned out.
EXPERIMENTAL ENDPOINT: self-cleavage kobs at 10000 uM GlcN6P (s⁻¹)
Provide only the numeric value, understood in s⁻¹.

# MUTANT, READOUT UNIT, self-cleavage kobs at 10000 uM GlcN6P
rows = [
    ("A33C C71U", "s⁻¹", "4.08e-05"),
    ("U31A G43A", "s⁻¹", "2.99e-05"),
    ("A14G G59U", "s⁻¹", 0.000196),
    ("G29A C67A", "s⁻¹", 0.00099),
    ("A15U U55G", "s⁻¹", 0.00356),
    ("G35C C67U", "s⁻¹", 0.00429),
]

If you can, please state the reported self-cleavage kobs at 10000 uM GlcN6P value of G13A G29A . 0.000165

Given the variant C11U G32A , what is its reported self-cleavage kobs at 10000 uM GlcN6P? 0.000404

Form field: reported self-cleavage kobs at 10000 uM GlcN6P of G29U A52G 0.00029

Look up self-cleavage kobs at 10000 uM GlcN6P: C70U C71G 0.00012

What self-cleavage kobs at 10000 uM GlcN6P value was documented for this variant, U30C U54C ? 0.000271

Item under review: C11U C67A . Reported self-cleavage kobs at 10000 uM GlcN6P? 0.000242

I'd like to know its self-cleavage kobs at 10000 uM GlcN6P. The variant in question is "A15U" 0.00847

Which measured self-cleavage kobs at 10000 uM GlcN6P value corresponds to A42U U56C C71U ? 5.21e-05

GET /values?readout=self-cleavage kobs at 10000 uM GlcN6P&item= G29U G41U U45C C70U 0.000108

Which measured self-cleavage kobs at 10000 uM GlcN6P value corresponds to U56G A64G ? 0.0156

Name the recorded self-cleavage kobs at 10000 uM GlcN6P for G29U A39C . 0.00118

Could you tell me which self-cleavage kobs at 10000 uM GlcN6P is on file for A36U U69G C71A ? 5.84e-05

What value of self-cleavage kobs at 10000 uM GlcN6P has been recorded for this entry: C16G A36U C50G C68G 0.000404

Returns the measured self-cleavage kobs at 10000 uM GlcN6P for the input variant. Input: A12C U65C 0.000343

Please give the measured self-cleavage kobs at 10000 uM GlcN6P for this variant: U45G U54C 0.00798

May I ask what self-cleavage kobs at 10000 uM GlcN6P has been recorded for U45G U65G ? 0.00282

# self-cleavage kobs at 10000 uM GlcN6P lookup, item U31C G40U 0.000515

Recorded self-cleavage kobs at 10000 uM GlcN6P of A15C A39G , please. 0.013

Given the entry G44A U54C , report its measured self-cleavage kobs at 10000 uM GlcN6P. 0.000869

# self-cleavage kobs at 10000 uM GlcN6P lookup, item A12U G40U U45G 0.00207
